# Test system: NCI-H522
# test.protocol: NCI tumour cell line growth inhibition, 48 h
Active and inactive are the calls of the source. Rule as the data show it: active = GI50 up to about 1.1 µM and inactive = higher.
Below, each entry is listed alongside its reported GI50.
recorded.endpoint: GI50

O=c1c2cc(-c3ccccc3)sc2nc2n1N=C(c1ccc(Cl)cc1)CS2 = > 100 µM (inactive)
CC1(C)COC(c2c(-c3ccccc3)noc2C[S+]([O-])c2ccccc2)=N1 (configuration not stated) = 36.1 µM (inactive)
CN(C)C(=S)C(Cl)(c1ccccc1)c1ccccc1 = 33.3 µM (inactive)
CS(=O)(=O)c1nc(Cl)c(Cl)c(C#N)c1Cl = 0.322 µM (active)
S=C1SCC2CCCN12 (configuration not stated) = > 100 µM (inactive)
N#CC1(C#N)C2C=CC(c3coc4cccc2c34)C1(C#N)C#N (configuration not stated) = 1.66 µM (inactive)
COc1ccc(Cc2cc3c(cc2OCC(=O)O)OCO3)cc1 = > 100 µM (inactive)
CCCCCCCC/C=C\CCCCCCCCCCCC(=O)O = 19.8 µM (inactive)
O=C(CCCCCCCCCCc1ccccc1)C1=C(O)CCCC1=O = 27 µM (inactive)
O=C1Nc2ccc(Br)cc2/C1=N/S(=O)(=O)O = 31.3 µM (inactive)
C=C(CN(CC(=C)C(=O)c1ccccc1)C(C)(C)C)C(=O)c1ccccc1 = 2.86 µM (inactive)
CC(C)C(=O)NCC[C@@H](CNC(=O)OC(C)(C)C)NC(=O)OC(C)(C)C = > 100 µM (inactive)
